Assay: Metabolic stability in mouse liver microsomes assessed as parent compound remaining in presence of NADPH by LC-MS/MS method
Assay type: ADME
endpoint.label: Stability (%)

Example entries and their recorded answers appear below.
INSERT INTO assay_data (compound, test_result) VALUES
  ('COc1cc(CN(Cc2ccc(F)cc2)C(C)c2ccc3c(c2)CCO3)ccc1OCCN1C(=O)CCC1=O (stereo not given)', 19),
  ('COc1cc(CN(C)C(C)c2ccc3c(c2)CCO3)ccc1OCCN1C(=O)CCC1=O (stereo not given)', 52);

a. CCC(c1ccc2c(c1)CCO2)N(CC)Cc1ccc(OCCN2C(=O)CCC2=O)c(OC)c1 (stereo not given)
b. COc1cc(CN(C[C@H]2CC[C@H](C(=O)O)CC2)[C@H]2CCc3cc(Cl)ccc32)ccc1OCCN1C(=O)CCC1=O
Hi there! Just curious which has the higher Stability between a and b . Provide the label of your selected option as the answer.
b
